Task for the reader: assign each of the following binders its reported OD (A492).
Molecular target: bovine serum albumin (BSA) (bovine) (UniProt P02769)
Sequence (P02769 25-607 limits assumed): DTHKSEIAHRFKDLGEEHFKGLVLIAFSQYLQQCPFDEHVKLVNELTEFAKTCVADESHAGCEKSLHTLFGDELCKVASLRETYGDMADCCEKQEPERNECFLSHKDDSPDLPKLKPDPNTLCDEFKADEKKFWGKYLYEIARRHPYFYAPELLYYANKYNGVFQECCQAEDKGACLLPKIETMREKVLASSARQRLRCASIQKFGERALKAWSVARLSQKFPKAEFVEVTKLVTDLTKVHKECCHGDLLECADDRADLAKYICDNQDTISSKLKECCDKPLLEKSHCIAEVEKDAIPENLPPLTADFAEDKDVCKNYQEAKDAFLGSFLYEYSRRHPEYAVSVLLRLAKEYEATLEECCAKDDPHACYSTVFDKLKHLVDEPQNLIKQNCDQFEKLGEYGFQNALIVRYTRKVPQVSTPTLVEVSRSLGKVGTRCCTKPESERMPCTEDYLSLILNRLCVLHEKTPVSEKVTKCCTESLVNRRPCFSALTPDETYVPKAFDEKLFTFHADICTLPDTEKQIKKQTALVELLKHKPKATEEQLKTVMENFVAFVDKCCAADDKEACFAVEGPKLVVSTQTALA
Assay: EIA, BSA background
Numeric answer only, unit OD assumed.

Supply OD (A492) value. Item: HCV 208B-793 (antibody, V domains shown) VH: EVKLVESGGGLVQPGGSLKLSCAASGFTFSSYAMSWVRQTPERRLEWVTYISNGGGSTYYSDTVKGRFTFSRDNAKNTLYLQMSSLKSEDTAMYYCARHGLGRTGFASWGQGTLVTVSA VL: DIVMTQSHKFMSTSVGDRVSITCKASQDVGTAVAWYQQKPGQSPKLLIYWASTRHTGVPDRFTGSGSGTDFTLTISNVQSEDLADYFCQQYSNYLTFGAGTKLEVKR
0.2

Supply OD (A492) value. Item: HCV 208A-967 (antibody, V domains shown) VH: QVQLEESGPGLVAPSQSLSITCTVSGFSLTSYGVHWVRQPPGKGLEWLGVIWAVGSINYNSALMSRLSISKDNSKSQVFLKMNSLRTDDTAMYYCARDRTTATPFFDYWGQGTTLTVSS VL: DIVLTQSPASLAGSLGKRAPISCKASESVNFFGTNLIHWYQQKPGQPPKLLIYHASNLKTGVPARFRGRGSKTNFPLPIDPVEENDVAIYYCLQNRKIPLTFGVGTKLELKR
0.15

Supply OD (A492) value. Item: HCV 208B-353 (antibody, V domains shown) VH: EVQLVESGGDLVKPGGSLKLSCAASGFTFNHYGMSWVRQPPDKRLEWVATISSGGGYTYYPDSVKGRFTISRDNAKDTLSLQMSSLRSGDTAVYYCASLYGSLFAYWGQGTLVTVSA VL: DIVMTQSQKFMSTTVGDRVRVTCKASQNVGTAVAWYQQKPGQSPKLLIYSASNRYTGVPDRFTGSGSGTDFTLTITNMQSEDLADYFCQQYSTYPLTFGSGAKLEIKR
0.1

Supply OD (A492) value. Item: HCV 208A-126 (antibody, V domains shown) VH: QLQQSGPVLVKPGASVMISCKTSGYTFTENAMHWVKQSHGKSLEWIGGVNPNNGDTIFNQKFKGKATLTVDKSSNTAFTELRSLPSEESTVYYCVRRGLDFFDYWGQGTSVTVSS VL: DIVLTQSPASLAVSLGQRATISCRASQSVSTSRYSYMHWYQQKPGQPPKLLIKYASNLESGVPARFSGSGSGTDFTLNIHPVAEEDTAAYYCQHSWEFPFTFGSGTKLEIKR
0.07

Supply OD (A492) value. Item: HCV 208A-442 (antibody, V domains shown) VH: DVQLQESGPGLVNPSQSLSLTCSVTGYSITSGYYWIWIRQFPGNKLEWMGYIKYDGGNNYSPSLKNRISIARDTSKNQFFLKLNSVTIEDTATYYCTRGSDSFDYWGQGTTLTVSS VL: DIVLTQSPASLAVSLGQRAIISCKASQSVSFAGTNLMHWYQQKPGQQPKLLIYRASNLETGVPTRFSGSGSRTDFTLNIHPVEEDDAATYYCQQSREYYTFGGGTKLEIKR
0.14
